molecular target: NLRP3 inflammasome (Mus musculus, UniProt Q8R4B8); assay: IL-1β release from J774A.1 cells upon LPS/ATP stimulation (ELISA)
Sequence (Q8R4B8 whole entry): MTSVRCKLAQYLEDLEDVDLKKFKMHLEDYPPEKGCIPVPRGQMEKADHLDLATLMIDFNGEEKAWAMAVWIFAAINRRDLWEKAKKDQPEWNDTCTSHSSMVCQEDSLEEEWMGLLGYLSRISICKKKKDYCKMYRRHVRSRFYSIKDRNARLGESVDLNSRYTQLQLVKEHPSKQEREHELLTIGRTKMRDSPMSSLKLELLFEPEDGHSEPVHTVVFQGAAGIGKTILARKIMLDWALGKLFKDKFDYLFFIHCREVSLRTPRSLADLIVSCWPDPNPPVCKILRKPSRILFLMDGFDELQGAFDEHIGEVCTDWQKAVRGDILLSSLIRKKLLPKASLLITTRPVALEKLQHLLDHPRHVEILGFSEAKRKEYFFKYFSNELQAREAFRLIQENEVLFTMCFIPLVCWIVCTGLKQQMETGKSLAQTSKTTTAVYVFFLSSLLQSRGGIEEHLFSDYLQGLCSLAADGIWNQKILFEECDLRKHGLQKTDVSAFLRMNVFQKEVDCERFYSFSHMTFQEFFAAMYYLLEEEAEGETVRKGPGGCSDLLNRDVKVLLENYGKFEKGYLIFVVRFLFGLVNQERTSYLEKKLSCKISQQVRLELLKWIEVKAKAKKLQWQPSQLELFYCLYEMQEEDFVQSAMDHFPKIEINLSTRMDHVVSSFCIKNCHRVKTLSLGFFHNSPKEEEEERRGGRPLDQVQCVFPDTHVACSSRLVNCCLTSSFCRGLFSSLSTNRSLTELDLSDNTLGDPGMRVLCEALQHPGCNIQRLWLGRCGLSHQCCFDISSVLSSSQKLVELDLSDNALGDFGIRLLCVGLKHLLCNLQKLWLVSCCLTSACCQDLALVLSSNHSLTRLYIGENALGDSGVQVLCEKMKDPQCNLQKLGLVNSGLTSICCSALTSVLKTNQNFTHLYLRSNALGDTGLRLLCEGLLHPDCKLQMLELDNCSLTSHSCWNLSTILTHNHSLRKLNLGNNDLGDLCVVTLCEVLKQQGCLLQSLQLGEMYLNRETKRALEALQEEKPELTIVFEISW
property-measured: IC50

# count of solved cases: 6
CCCOc1ccc(Cl)cc1CN(CCc1ccc(S(=O)(=O)NCc2ccc(OC)cc2)cc1)C(=O)Cc1ccccc1 | < 1000 nM
C#CCNS(=O)(=O)c1ccc(CCN(Cc2cc(Cl)ccc2OCCC)C(=O)[C@@H](N)c2ccsc2)cc1 | < 1000 nM
C#CCNS(=O)(=O)c1ccc(CCN(Cc2cc(Cl)ccc2OCCN2CCOCC2)C(=O)Cc2ccsc2)cc1 | 1000 to 10000 nM
C=CCOc1ccc(Cl)cc1CN(CCc1ccc(S(=O)(=O)NCc2ccc(OC)cc2)cc1)C(=O)Cc1ccccc1 | < 1000 nM
C#CCNS(=O)(=O)c1ccc(CCN(CCCCC)Cc2cc(Cl)ccc2OCCC)cc1 | 1000 to 10000 nM
C#CCNS(=O)(=O)c1ccc(CCN(Cc2cc(Cl)ccc2OCCC)C(=O)[C@H](N)Cc2ccccc2)cc1 | 1000 to 10000 nM

Lab note: NLRP3 inflammasome (Mus musculus, UniProt Q8R4B8) assay, enter IC50 for CCCCN(CCCC)C(=O)c1ccc(CCN(Cc2cc(Cl)ccc2OCCC)C(=O)Cc2ccccc2)cc1 here
< 1000 nM

* * *

biological target: NLRP3 inflammasome (Mus musculus, UniProt Q8R4B8); test: IL-1β release from J774A.1 cells upon LPS/ATP stimulation (ELISA)
pIC50: −log10 of the molar value.
property-measured: pIC50

Field: example entries. Status: answers known.
O=C(NCCc1ccc(S(=O)(=O)N2CCCC2)cc1)c1cc(Cl)ccc1C(=O)c1ccccc1 [SZ-N3I-64] | 5.00 to 6.00
CCCOc1ccc(Cl)cc1CN(CCc1ccc(C(=O)NC)cc1)C(=O)Cc1ccccc1 [SZ-N3I-36] | 5.00 to 6.00
C#CCNC(=O)c1ccc(CCN(Cc2cc(Cl)ccc2OCCC)C(=O)Cc2ccccc2)cc1 [SZ-N3I-37] | > 6.00
O=C(NCCc1ccc(S(=O)(=O)N2CCCC2)cc1)c1cc(Cl)ccc1C(O)c1ccccc1 (centres unmarked) [SZ-N3I-66] | 5.00 to 6.00

Kindly review the next molecule as well.
Please respond with reported pIC50 (system NLRP3 inflammasome (Mus musculus, UniProt Q8R4B8)) for C#CCNS(=O)(=O)c1ccc(CCN(Cc2cc(Cl)ccc2OCCC)C(=O)[C@@H](N)Cc2cccs2)cc1 [SZ-N3I-78] .
> 6.00
